Test system: phosphorylation of Akt at Serine 473
Test: pAkt AlphaScreen (U87 cell)
Assay type: cell-based
Details: Homo sapiens, U-87 MG; U87 MG cells, pAkt Ser473; average
recorded-metric: log10 of IC50 (log10 of the value in µM)
Plainly stated, the numbers are log10 of IC50 given in µM.

CCN(CCC#N)c1ccnc2ccc(-c3cnc(Cl)c(NS(C)(=O)=O)c3)cc12 [Example 78] = -0.71
O=S(=O)(Nc1cc(-c2ccc3nccc(-c4cccnc4)c3c2)cnc1Cl)c1ccc(F)cc1 [Example 93] = -1.92

Request the reported log10 of IC50 associated with COc1ccc(OC)c(CNc2ccnc3ccc(-c4cnc(Cl)c(NS(C)(=O)=O)c4)cc23)c1 [Example 87]
0.15

Please report the recorded log10 of IC50 for COCCN(C)S(=O)(=O)Nc1cc(-c2ccc3ncc(=O)n(-c4cccc(C(F)(F)F)c4)c3c2)cnc1Cl [Example 134] .
-1.55

Give its log10 of IC50 value. Item: CN(C)S(=O)(=O)Nc1cc(-c2ccc3ncc(=O)n(-c4cccc(C(F)(F)F)c4)c3c2)cnc1Cl [Example 133]
-2.03

Can you look up the measured log10 of IC50 of COCCN(C)c1ccnc2ccc(-c3cnc(Cl)c(NS(=O)(=O)N(C)CCOC)c3)cc12 [Example 126] for me?
-0.17

Requested read-out: log10 of IC50. Entry: O=S(=O)(Nc1cc(-c2ccc3ncc(NCCN4CCOCC4)nc3c2)cnc1Cl)c1ccc(F)cc1 [Example 91]
-1.12

Look up log10 of IC50 for this compound: O=S1(=O)CCC(COc2ccnc3ccc(-c4cnc(Cl)c(NS(=O)(=O)c5ccc(F)cc5)c4)cc23)CC1 [Example 113]
-1.35

Data origin, for the record: patent US8415376B2
